# SYSTEM: Torsin-1A-interacting protein 1 (Homo sapiens)
# PROTOCOL: LAP1 binders from COS7 cell lysate, primary screen, small-molecule microarray, 635/667 nm fluorescence (AID 1116)
# CONDITION: COS7-hLAP1 lysate binding, 635 nm fluorescence, higher = more signal
# cutoff 0.6 applies to composite z-score; >= gives Fulfilled, < gives Not fulfilled

Consider the following illustrative entries.
>>> label_class("CC(C)(C)OC(=O)CC[C@]1(C(=O)O)N=C(c2ccc(OCCCO)cc2)O[C@H]1c1ccccc1CN=[N+]=[N-]")
"Fulfilled"
>>> label_class("COCCOC(=O)N1C(=O)[C@@]2(c3cc(C#Cc4ccc(OC)cc4)ccc31)[C@H](C(=O)NC[C@H](O)c1ccccc1)[C@H]1C(=O)O[C@H](c3ccccc3)[C@H](c3ccccc3)N1[C@@H]2c1ccc(O)cc1")
"Fulfilled"
>>> label_class("NCCCCCNC(=O)[C@@H]1C[C@@H]2C(=O)N[C@@H](CCCCN)C(=O)N2[C@@H]1c1cccc(OCCO)c1")
"Fulfilled"

stdin: Answer whether composite z-score of CCCCC(=C=CC[C@@H](O)c1ccc(OCCO)cc1)C[C@@H](O)COCc1ccccc1 is greater than or equal to 0.6.
stdout: Fulfilled

stdin: Answer whether composite z-score of CC1CC/C=C\[C@H]2OC34C=CCN(CCN5CCOCC5)C(=O)[C@H]3N(CCO)C(=O)[C@@H]4C2C(=O)O1 (some centres not stated) is greater than or equal to 0.6.
stdout: Not fulfilled

stdin: Answer whether composite z-score of CCCCN1CC=CC23O[C@@H]4/C=C\CCC(C)OC(=O)C4[C@H]2C(=O)N(CCCCCCO)[C@@H]3C1=O (some centres not stated) is greater than or equal to 0.6.
stdout: Fulfilled

* * *

# PROTOCOL: small-molecule binders of probe aLefty1, primary screen, biochemical, small-molecule microarray, 635/667 nm fluorescence (AID 1153);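 also: score merges spot fluorescence with signal-to-noise ratio from the scanned slide images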
# CONDITION: higher = more signal
# cutoff 0.04 applies to composite z-score; >= gives YES, < gives NO

>>> label_class("CCOC(=O)C1=CC[C@@H](c2ccc([N+](=O)[O-])cc2)N(S(=O)(=O)c2ccc(C)cc2)[C@H]1c1ccccc1")
"YES"
>>> label_class("CC(C)CNC(=O)[C@@]1(c2ccc([N+](=O)[O-])cc2)CC(=O)N(C2CCCCC2)[C@@H]1c1ccc(CO)cc1I")
"YES"
>>> label_class("CCOc1cc(C(O)C2C=CC3C(=O)N(C4CCCCC4)C(=O)C3N2Nc2ccc(OC)cc2)ccc1O (stereo not given)")
"YES"
>>> label_class("COc1ccc([Si](C)(C)[C@@H]2[C@@H](CCO)O[C@]3(C(=O)N(Cc4cccc(N5C(=O)c6ccccc6Oc6ccccc65)c4)c4ccccc43)[C@H]2C)cc1")
"NO"

Next item in the queue.
stdin: Answer whether composite z-score of COCCCNC(=O)[C@@]1(Sc2ccc(C)cc2)CC(=O)N(C2Cc3ccccc3C2)[C@@H]1c1ccc(CO)cc1I is greater than or equal to 0.04.
stdout: NO

* * *

# PROTOCOL: basal RPMI8226 viability, no added stimulus, profiling panel, cell-based, calcein-AM fluorescence, 48 h, PK04 Diversity Set (AID 1166);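 also: cells grown under basal conditions without added stimulus; test concentration not given here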
# CONDITION: RPMI8226 myeloma viability, higher = more signal
// assign rule met if z-score falls strictly below -0.7, else rule not met (ties count as rule not met)

>>> label_class("CN(C)C(=O)[C@]1(CCC(=O)OC(C)(C)C)N=C(c2ccc(OCCCO)cc2)O[C@@H]1c1ccccc1")
"rule not met"
>>> label_class("COCCOC(=O)N1C(=O)[C@@]2(c3ccccc31)[C@H](C(=O)N1CCN(c3ncccn3)CC1)[C@H]1C(=O)O[C@H](c3ccccc3)[C@H](c3ccccc3)N1[C@@H]2c1ccc(OCCO)cc1")
"rule not met"
>>> label_class("Cc1ccc(S[C@]2(C(=O)NCC(C)C)CC(=O)N(Cc3ccccc3Cl)[C@@H]2c2ccc(CO)cc2I)cc1")
"rule met"
>>> label_class("C=CCOC(=O)[C@@H]1[C@H]2C(=O)O[C@H](c3ccccc3)[C@H](c3ccccc3)N2[C@H](c2ccc(OCCOC(=O)[C@H]3C[C@H]4C(=O)N[C@@H](CCCCN(C)C)C(=O)N4[C@H]3c3cccc(OCCO)c3)cc2)[C@@]12C(=O)Nc1ccc(I)cc12")
"rule not met"
>>> label_class("C[C@@H]1ON(c2ccc(C(=O)OC(C)(C)C)cc2)[C@H](c2ccc(Br)cc2)[C@H]1C(=O)N1C(=O)OC[C@H]1Cc1ccccc1")
"rule not met"

stdin: Report whether reported z-score is lower than -0.7 (strictly) for C[N+](C)(C)CCCC[C@@H]1NC(=O)[C@@H]2C[C@H](C(=O)O)[C@H](c3ccc(O)cc3)N2C1=O
stdout: rule not met

stdin: Report whether reported z-score is lower than -0.7 (strictly) for CC(C)CNC(=O)[C@@H]1c2ccccc2C(=O)N(Cc2cc(F)cc(C(F)(F)F)c2)[C@H]1c1ccc(CO)cc1
stdout: rule not met

stdin: Report whether reported z-score is lower than -0.7 (strictly) for CC(C)OC(=O)CC(=O)CC(O)c1cccc(C#N)c1 (stereo not drawn)
stdout: rule not met

stdin: Report whether reported z-score is lower than -0.7 (strictly) for COc1cc2c(cc1OC)CN(C(=O)[C@H]1[C@@H]3C(=O)O[C@@H](c4ccccc4)[C@@H](c4ccccc4)N3[C@@H](c3ccc(OCCO)cc3)[C@]13C(=O)Nc1ccc(C#CC4(O)CCCCCC4)cc13)CC2
stdout: rule not met

stdin: Report whether reported z-score is lower than -0.7 (strictly) for O=C1NC(=O)C2C1C=CC(C(O)c1cc(C(F)(F)F)cc(C(F)(F)F)c1)N2Nc1ccc(Cl)cc1Cl (stereo not drawn)
stdout: rule met

stdin: Report whether reported z-score is lower than -0.7 (strictly) for [N-]=[N+]=NCc1ccccc1C[C@@]1(C(=O)N2CCCCC2)N=C(c2ccc(OCCCO)cc2)O[C@@H]1c1ccccc1N=[N+]=[N-]
stdout: rule met

stdin: Report whether reported z-score is lower than -0.7 (strictly) for CCCC=C(CCC)[C@@H](NP(=O)(c1ccccc1)c1ccccc1)c1ccc(C(F)(F)F)cc1
stdout: rule not met

stdin: Report whether reported z-score is lower than -0.7 (strictly) for C[C@H]1C2=C3C(CC[C@H]4C(OCc5ccc(F)cc5C(F)(F)F)OC[C@](C)([C@@H]34)N(C(=O)OC(C)(C)C)C2)C2COC(=O)OCC21 (stereo partly drawn)
stdout: rule met

* * *

# PROTOCOL: P. aeruginosa biofilm formation inhibitors, primary screen, strain PAO1, LB-PBS medium, absorbance 600 nm (AID 1176); also: test concentration not given here
# CONDITION: P. aeruginosa PAO1 growth/biofilm, A600, 12 h; higher = more signal
# cutoff 0.3 applies to z-score; >= gives T, < gives F

Consider the following illustrative entries.
>>> label_class("COCCCNC(=O)[C@]1(Cc2ccccc2CN=[N+]=[N-])N=C(c2ccc(OCCCO)cc2)O[C@@H]1c1ccccc1")
"F"
>>> label_class("CC(C)N1C(=O)[C@@]2(c3ccc([N+](=O)[O-])cc3)CC(=O)N(C3CCCCC3)[C@@H]2c2ccc(CO)cc21")
"F"
>>> label_class("C=CC[C@]12N=C(c3ccc(OCCCO)cc3)O[C@H]1c1ccccc1N(C)C2=O")
"T"
>>> label_class("CC(=O)N1Cc2ccccc2C[C@]2(N=C(c3ccc(OCCCO)cc3)O[C@@H]2c2ccccc2)C1=O")
"F"
>>> label_class("CN1C(=O)C2C=CC(C(O)c3c(F)cccc3Cl)N(Nc3ccccc3)C2C1=O (centres undefined)")
"T"

stdin: Answer whether z-score of COc1cc(OC)c(C(O)C2C=CC3C(=O)N(c4ccccc4)C(=O)C3N2Nc2ccc(C#N)cc2)cc1Br (centres undefined) is greater than or equal to 0.3.
stdout: T

stdin: Answer whether z-score of COCCOC(=O)N1C(=O)[C@@]2(c3cc(C#CCC(C(=O)OC)C(=O)OC)ccc31)[C@H](c1ccc(OCCO)cc1)N1[C@H](c3ccccc3)[C@H](c3ccccc3)OC(=O)[C@H]1[C@@H]2C(=O)N1CCN(c2ncccn2)CC1 is greater than or equal to 0.3.
stdout: T

stdin: Answer whether z-score of CO[C@H]1O[C@H](CO)[C@@H](OC(=O)Nc2ccccc2-c2ccccc2)[C@H](OC(=O)Nc2ccc3c(c2)OCO3)[C@@H]1OC(=O)Nc1ccc2c(c1)OCO2 is greater than or equal to 0.3.
stdout: T

stdin: Answer whether z-score of COCCCNC(=O)[C@]1(CCC(=O)OC(C)(C)C)N=C(c2ccc(OCCCO)cc2)O[C@@H]1c1ccccc1 is greater than or equal to 0.3.
stdout: T

* * *

# SYSTEM: Dickkopf-related protein 1 (Homo sapiens) (UniProt O94907)
# Sequence (O94907 whole entry, looked up): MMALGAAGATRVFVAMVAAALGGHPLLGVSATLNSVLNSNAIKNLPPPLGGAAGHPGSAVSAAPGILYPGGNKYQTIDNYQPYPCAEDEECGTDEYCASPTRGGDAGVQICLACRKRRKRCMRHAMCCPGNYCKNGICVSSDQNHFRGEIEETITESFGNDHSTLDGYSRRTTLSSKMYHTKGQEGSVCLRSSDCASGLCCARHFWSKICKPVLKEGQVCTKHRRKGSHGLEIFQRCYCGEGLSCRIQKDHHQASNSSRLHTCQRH
# PROTOCOL: DKK1 binders on small-molecule microarrays, primary screen, biochemical, small-molecule microarray, 635 nm fluorescence scan (AID 1106);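 also: score merges emission near 667 nm with signal to noise over three replicate slides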
# CONDITION: DKK1 binding, higher = more signal
# cutoff -0.3 applies to composite z-score; >= gives y, < gives n

Consider the following illustrative entries.
>>> label_class("O=C(N1CCCCC1)[C@@]1(Cc2ccccc2)COC(c2ccc(OCCCO)cc2)=N1")
"y"
>>> label_class("CN(C)CCCNC(=O)[C@@H]1c2ccccc2C(=O)N(Cc2ccc(OC(F)(F)F)cc2)[C@H]1c1ccc(CO)cc1")
"y"
>>> label_class("COC(=O)[C@@]1(Cc2ccccc2)[C@H]2c3cc(C(=O)N4CCCC4)[nH]c3C[C@H]2CN1C(=O)c1ccccc1")
"n"
>>> label_class("CC(=O)n1cc(C(O)C2C=CC3C(=O)N(Cc4ccccc4)C(=O)C3N2n2cnnc2)c2ccccc21 (stereo unspecified)")
"y"

stdin: Answer whether composite z-score of COc1cc(CO)cc(I)c1O[C@H]1C=C(C(=O)NCCO)C[C@@H](NCc2ccccc2F)[C@@H]1O is greater than or equal to -0.3.
stdout: y
